These entries and their values trace back to paper PMC10464598.

pIC50: −log10 of the molar value.
Listed here: molecules with reported pIC50 for urease (Canavalia ensiformis).
METRIC: pIC50

I = COc1ccc(-c2nnc(C(C)c3ccc(-c4ccccc4)c(F)c3)o2)c(OC)c1OC (stereo not drawn) [Compound 10]
II = COc1ccc(-c2nnc(C(C)c3ccc(-c4ccccc4)c(F)c3)o2)c(Cl)c1OC (stereo not drawn) [Compound 17]
III = COc1ccccc1-c1nnc(C(C)c2ccc(-c3ccccc3)c(F)c2)o1 (stereo not drawn) [Compound 20]
Inquiry: Let's sort these by pIC50, smallest first. Go ahead? // rank by listing labels in the order requested
Reply text: II, I, III

I = COc1ccc(-c2nnc(C(C)c3ccc(-c4ccccc4)c(F)c3)o2)c(F)c1 (stereo not drawn) [Compound 22]
II = CC(c1ccc(-c2ccccc2)c(F)c1)c1nnc(-c2cccc(O)c2O)o1 (stereo not drawn) [Compound 31]
Inquiry: Given I and II , report the one with the higher recorded pIC50. Reply briefly: the label of your chosen item.
Reply text: II
